This listing pairs compounds with measured MIC.
System: Staphylococcus aureus
Assay: Antibacterial activity against methicillin sensitive Staphylococcus aureus UAMS1
Format: functional
The reply should be a number in µg/mL, with the unit left off.

• COC/C1=C\CC[C@H](C)[C@@H](C)OC(=O)/C=C/[C@](C)(O)/C=C/[C@@H]1OC = 128
• CO[C@H]1/C=C/[C@@](C)(O)C(SCCN)CC(=O)O[C@H](C)[C@@H](C)CC/C=C/1C (mixture of isomers) = 128
• CO[C@H]1/C=C/[C@@](C)(O)/C=C/C(=O)O[C@H](C)[C@@H](C)CC/C=C/1C = 2
• CO[C@H]1/C=C/[C@@](C)(OC(=O)c2ccc(F)cc2)/C=C/C(=O)O[C@H](C)[C@@H](C)CC/C=C/1C = 1
• C/C1=C\CC[C@H](C)[C@@H](C)OC(=O)/C=C/[C@](C)(O)/C=C/[C@@H]1O = 8
• CO[C@H]1/C=C/[C@@](C)(O)/C=C/C(=O)O[C@H](C)[C@@H](C)CC/C=C/1CO = 32

What value of measured MIC is listed for "CO[C@H]1/C=C/[C@@](C)(O)/C=C/C(=O)O[C@H](C)[C@@H](C)CC/C=C/1C=O" ?
32
